Test Summary: amyloid nucleation score (Sup35N fusion, yeast selection) (log enrichment); library NNK2; higher = more nucleation; inactive = no reads after selection;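 also: zero at mode of non-aggregating sequences after 7 days selection at 30°C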

# Substance, amyloid nucleation score
data = [
    ("NSRSLTDTHDCMVTGWATRH", -0.159),
    ("YFSFTGPHLDVA", -0.937),
    ("DVGSPWLNYSSFFIFWSTIS", -1.02),
    ("SCSSCLL", -0.183),
    ("ICGCKRSTVLWVSCFGV", 3.18),
    ("YYHYYFGFCDNM", 0.664),
    ("RVGACRMVRHYVGTWVQQLL", 0.246),
    ("VFGKGQWVDLIRRREDVYTN", -0.759),
    ("YIDGDNYHGILCHSRV", 3.86),
    ("NVVTGVASILWGQDHNKSLV", 0.641),
    ("AYKCFGVLCFRRNRSGKEGL", -0.318),
    ("KEPYHNYI", 0.179),
    ("CFKDYQIGSCKQSL", -0.499),
    ("VLRYLDFDYRLELFIYVMHR", -1.48),
    ("MGLNYLKQQAARYDEGGPS", 1.5),
    ("WLGIAAM", 1.15),
    ("ACNFQVCGWERQSSRFR", 3.14),
    ("ARNRSSIKWGRGSDYGFTEL", 0.451),
    ("VNGVSMMHKIVLVNR", 0.058),
    ("VYRSRAVHATSLGSERFNTD", 5.17),
    ("LFIYLGDQSSNKVKPTHFRE", -0.497),
    ("LFVVTVTIMCYLSKEYVGLP", 0.039),
    ("YTLRSNTNASMRRHLMQVPR", -0.531),
    ("RVYMWLWIGWCRIG", 0.58),
    ("EDGGLCSASVRLYG", 0.379),
    ("YSMGAYTVSMGACA", -1.05),
    ("KISCKKNWGAYVPF", -0.594),
    ("AHLRITFSMSMNMQLFMVLR", 0.587),
    ("LRGVLLSETRCAKEGLPTLS", 0.365),
    ("NCWVVSQYTVVN", -0.77),
    ("VWPQCYLSLVF", -0.082),
    ("FNVSVCCG", 0.607),
    ("TFIVMKIHYRFKVKLICQTC", 0.681),
    ("GNKCLSWVES", -0.12),
]

All figures here come from the supplement of paper PMC12042874.
